# Run Description: Antiviral activity against Influenza A virus A/Texas/04/2009(H1N1) infected in MDCK cells expressing ST6Gal 1 preincubated with virus and cells for 30 mins followed viral infection measured after 2 to 3 days by naphthalene black dye-based plaque reduction assay
# Assay type: functional, cell-based
pEC50: −log10 of the molar value.

{"Smiles Representation": "C[Si](C)(C)c1ccc(CNC23CC4CC(CC(O)(C4)C2)C3)cc1", "pEC50": 6.22}

---

# Run Description: Selectivity index, ratio of CC50 for human A549 cells to EC50 for Influenza A virus A/California/07/2009 (H1N1)
# Assay type: toxicity
# Run Conditions: read-out: Ratio CC50/EC50

{"Smiles Representation": "C[Si](C)(C)c1ccc(CNC23CC4CC(CC(O)(C4)C2)C3)cc1", "selectivity ratio": 61}

---

# Run Description: Selectivity index, ratio of CC50 for human A549 cells to EC50 for Influenza A virus A/Washington/29/2009 (H1N1)
# Type: toxicity
# Run Conditions: read-out: Ratio CC50/EC50

{"Smiles Representation": "C[Si](C)(C)c1ccc(CNC23CC4CC(CC(O)(C4)C2)C3)cc1", "selectivity ratio": 52.3}

Source of measurements: ChEMBL document CHEMBL4033658
